system: Human papillomavirus type 1a E7 protein (residues 1-88); assay: HPV1a E7 small-molecule binders, primary screen, biochemical, small-molecule microarray, residues 1-88, 635 nm (AID 1129); conditions: small-molecule microarray binding, fluorescence 635 nm; higher = more signal
Readout Kind: composite z-score

[Q] Give the reported composite z-score for this compound. COc1cc2c(cc1O)C(C)N(Cc1cc3c(cc1Br)OCO3)CC2 (stereo unspecified)
[A] -1.4

[Q] Give the reported composite z-score for this compound. "[N-]=[N+]=NCc1ccccc1C[C@@]1(C(=O)NCCN2CCOCC2)N=C(c2ccc(OCCCO)cc2)O[C@@H]1c1ccccc1N=[N+]=[N-]"
[A] 1.19

[Q] Give the reported composite z-score for this compound. "Cc1ccc(S[C@]2(C(=O)O)CC(=O)N(Cc3ccccc3Cl)[C@@H]2c2ccc(CO)cc2)cc1"
[A] -0.558

[Q] Give the reported composite z-score for this compound. "O=C1O[C@@H](c2ccccc2)[C@@H](c2ccccc2)N2[C@@H](c3ccc(O)cc3)[C@]3(C(=O)Nc4ccc(C#CCCO)cc43)[C@@H](C(=O)NC[C@H](O)c3ccccc3)[C@H]12"
[A] -0.386

[Q] Give the reported composite z-score for this compound. "C=CCN1C(=O)[C@@]2(O[C@@H](CCn3cc([C@H](O)c4ccccc4)nn3)[C@H]([Si](C)(C)c3ccc(OC)cc3)[C@H]2C)c2ccccc21"
[A] 1.14

[Q] Give the reported composite z-score for this compound. "COCCOC(=O)N1C(=O)[C@@]2(c3cc(C#CC4(O)CCCCCC4)ccc31)[C@H](c1ccccc1OCCO)N1[C@H](c3ccccc3)[C@H](c3ccccc3)OC(=O)[C@H]1[C@@H]2C(N)=O"
[A] 1.18
